- Test system: MCF7
- assay.remarks: Cytotoxicity against human MCF7 cells assessed as reduction in cell viability after 24 hrs by MTT assay
- Type: functional, cell-based
- condition.info: MCF7, 24 h
Recorded IC50 for the following molecules
readout.name: IC50 (µM)

[[record]]
molecule = "OC1(C(F)(F)F)CS/C(=N\\c2cccc(C(F)(F)F)c2)N1c1cccc(C(F)(F)F)c1 (stereo not drawn)"
measurement_target = "MCF7"
readout_name = "IC50"
value_observed = 6.69

[[record]]
molecule = "OC1(C(F)(F)F)CS/C(=N\\c2ccccc2)N1c1ccccc1 (stereo not drawn)"
measurement_target = "MCF7"
readout_name = "IC50"
value_observed = 25

[[record]]
molecule = "OC1(C(F)(F)F)CS/C(=N\\c2ccc(C(F)(F)F)cc2)N1CCc1ccccn1 (stereo not drawn)"
measurement_target = "MCF7"
readout_name = "IC50"
value_observed = 25.3

[[record]]
molecule = "OC1(C(F)(F)F)CS/C(=N\\c2ccc(C(F)(F)F)cc2)N1Cc1ccco1 (stereo not drawn)"
measurement_target = "MCF7"
readout_name = "IC50"
value_observed = 25.1

[[record]]
molecule = "OC1(C(F)(F)F)CS/C(=N\\c2ccccc2)N1C1CC1 (stereo not drawn)"
measurement_target = "MCF7"
readout_name = "IC50"
value_observed = 29.2

[[record]]
molecule = "O=c1cc(N2CCOCC2)oc2c(-c3ccccc3)cccc12"
measurement_target = "MCF7"
readout_name = "IC50"
value_observed = 29.1

[[record]]
molecule = "OC1(C(F)(F)F)CS/C(=N\\c2ccccc2)N1CCc1ccccn1 (stereo not drawn)"
measurement_target = "MCF7"
readout_name = "IC50"
value_observed = 25.9

[[record]]
molecule = "OC1(C(F)(F)F)CS/C(=N\\c2ccc(F)c(Cl)c2)N1c1ccccc1 (stereo not drawn)"
measurement_target = "MCF7"
readout_name = "IC50"
value_observed = 22.9

[[record]]
molecule = "CCCN1/C(=N/c2ccccc2)SCC1(O)C(F)(F)F (stereo not drawn)"
measurement_target = "MCF7"
readout_name = "IC50"
value_observed = 22.5

[[record]]
molecule = "OC1(C(F)(F)F)CS/C(=N\\c2ccc(F)cc2)N1c1ccc(F)cc1 (stereo not drawn)"
measurement_target = "MCF7"
readout_name = "IC50"
value_observed = 34.1

[[record]]
molecule = "OC1(C(F)(F)F)CS/C(=N\\c2ccccc2)N1CCN1CCOCC1 (stereo not drawn)"
measurement_target = "MCF7"
readout_name = "IC50"
value_observed = 37.4

[[record]]
molecule = "COc1ccc(N2/C(=N/c3ccc(C(F)(F)F)cc3)SCC2(O)C(F)(F)F)cc1 (stereo not drawn)"
measurement_target = "MCF7"
readout_name = "IC50"
value_observed = 29.2

[[record]]
molecule = "OC1(C(F)(F)F)CS/C(=N\\c2ccc(F)cc2)N1c1ccccc1 (stereo not drawn)"
measurement_target = "MCF7"
readout_name = "IC50"
value_observed = 25.8

